test: Electrochemical measurements (cyclic voltammetry); type: physicochemical; details: cyclic voltammetry, 0.1 M nBu4NPF6, glassy carbon, vs Cp2Fe^+/0
Documented Couple II (second reduction couple) across a set of compounds
measured.parameter: Couple II (second reduction couple) (V)

1. Clc1ccc(-c2c3nc(c(-c4ccc(Cl)cc4)c4ccc([n-]4)c(-c4ccc(Cl)cc4)c4nc(c(-c5ccc(Cl)cc5)c5ccc2[n-]5)C=C4)C=C3)cc1.[Au+3].[Cl-] [Complex 1e]	−1.44
2. Brc1ccc(-c2c3nc(c(-c4ccc(Br)cc4)c4ccc([n-]4)c(-c4ccc(Br)cc4)c4nc(c(-c5ccc(Br)cc5)c5ccc2[n-]5)C=C4)C=C3)cc1.[Au+3].[Cl-] [Complex 1d]	−1.45
3. COc1ccc(-c2c3nc(c(-c4ccc(OC)cc4)c4ccc([n-]4)c(-c4ccc(OC)cc4)c4nc(c(-c5ccc(OC)cc5)c5ccc2[n-]5)C=C4)C=C3)cc1.[Au+3].[Cl-] [Complex 1c]	−1.51
4. C1=Cc2nc1c(-c1ccccc1)c1ccc([n-]1)c(-c1ccccc1)c1nc(c(-c3ccccc3)c3ccc([n-]3)c2-c2ccccc2)C=C1.[Au+3].[Cl-] [Complex 1a]	−1.48

====

assay: Electrochemical measurements (cyclic voltammetry); format: physicochemical; settings: relative to Y=H (Complex 1a)
Documented ΔE1o (E^0Y − E^0H), couple I across a set of molecules
measured.parameter: ΔE1o (E^0Y − E^0H), couple I (V)

1. COc1ccc(-c2c3nc(c(-c4ccc(OC)cc4)c4ccc([n-]4)c(-c4ccc(OC)cc4)c4nc(c(-c5ccc(OC)cc5)c5ccc2[n-]5)C=C4)C=C3)cc1.[Au+3].[Cl-]	−0.02
2. C1=Cc2nc1c(-c1ccccc1)c1ccc([n-]1)c(-c1ccccc1)c1nc(c(-c3ccccc3)c3ccc([n-]3)c2-c2ccccc2)C=C1.[Au+3].[Cl-]	0

====

system: Human Nasopharyngeal Carcinoma (cisplatin resistance, CNE1); assay: MTT cytotoxicity, CNE1; type: cell-based
measured.parameter: IC50 ratio [cisplatin/gold (III) porphyrin complexes] CNE1

1) COc1ccc(-c2c3nc(c(-c4ccc(OC)cc4)c4ccc([n-]4)c(-c4ccc(OC)cc4)c4nc(c(-c5ccc(OC)cc5)c5ccc2[n-]5)C=C4)C=C3)cc1.[Au+3].[Cl-]	53.0
2) COc1cc(-c2c3nc(c(-c4cc(OC)c(OC)c(OC)c4)c4ccc([n-]4)c(-c4cc(OC)c(OC)c(OC)c4)c4nc(c(-c5cc(OC)c(OC)c(OC)c5)c5ccc2[n-]5)C=C4)C=C3)cc(OC)c1OC.[Au+3].[Cl-]	55.9
3) Clc1ccc(-c2c3nc(c(-c4ccc(Cl)cc4)c4ccc([n-]4)c(-c4ccc(Cl)cc4)c4nc(c(-c5ccc(Cl)cc5)c5ccc2[n-]5)C=C4)C=C3)cc1.[Au+3].[Cl-]	99.5

====

biological target: HIV-1 reverse transcriptase (Human immunodeficiency virus type 1 group M subtype B); construct: treatment of HIV-1 RT in Lysis buffer (2 ng, 128.7 μL) with Complex 1j; assay: HIV-1 reverse transcriptase activity, ELISA method; conditions: ELISA; mean ± SE of at least three determinations; read-out: IC50 HIV-1 RT
pIC50: −log10 of the molar value.
measured.parameter: pIC50

1. Cc1cn(C2CC(N=[N+]=[N-])C(CO)O2)c(=O)[nH]c1=O (stereo not shown)	7.16

====

Documented IC50 ratio [cisplatin/gold (III) porphyrin complexes] CNE1 across a set of compounds
tested on: Human Nasopharyngeal Carcinoma (cisplatin resistance, CNE1); test: MTT cytotoxicity, CNE1; format: cell-based
measured.parameter: IC50 ratio [cisplatin/gold (III) porphyrin complexes] CNE1

1) Fc1c(F)c(F)c(-c2c3nc(c(-c4c(F)c(F)c(F)c(F)c4F)c4ccc([n-]4)c(-c4c(F)c(F)c(F)c(F)c4F)c4nc(c(-c5c(F)c(F)c(F)c(F)c5F)c5ccc2[n-]5)C=C4)C=C3)c(F)c1F.[Au+3].[Cl-] [Complex 1g]	28.1
2) Brc1ccc(-c2c3nc(c(-c4ccc(Br)cc4)c4ccc([n-]4)c(-c4ccc(Br)cc4)c4nc(c(-c5ccc(Br)cc5)c5ccc2[n-]5)C=C4)C=C3)cc1.[Au+3].[Cl-] [Complex 1d]	41.6

====

Documented pIC50 across a set of molecules
Test system: Human Cervix Epitheloid Carcinoma (HeLa)
Assay: MTT cytotoxicity, HeLa
Assay type: cell-based
Settings: MTT, growth inhibition
Description: Human promyelocytic leukemia (HL-60), human hepatocellular carcinoma (HepG2), Human cervix epitheloid carcinoma cells (HeLa) and human oral epidermoid carcinoma cells (KB-3-1), were obtained from American Type Culture Collection (ATCC) (Rockville, Md.). […] Cell culture flasks and 96 well microtitre plates were from Nalge Nunc hit. Culture medium, other medium constituents and phosphate buffered saline (PBS) were obtained from Gibco BRL (Rockville, Md.). […]
pIC50: −log10 of the molar value.
measured.parameter: pIC50

1. Fc1c(F)c(F)c(-c2c3nc(c(-c4c(F)c(F)c(F)c(F)c4F)c4ccc([n-]4)c(-c4c(F)c(F)c(F)c(F)c4F)c4nc(c(-c5c(F)c(F)c(F)c(F)c5F)c5ccc2[n-]5)C=C4)C=C3)c(F)c1F.[Au+3].[Cl-]	5.50
2. CCCC[N+](CCCC)(CCCC)CCCC.[Au+3].[Cl-].[Cl-].[Cl-].[Cl-] [nBu4N[AuCl4], Tetrabutylammonium tetrachloroaurate, reference compound]	5.08
3. COc1ccc(-c2c3nc(c(-c4ccc(OC)cc4)c4ccc([n-]4)c(-c4ccc(OC)cc4)c4nc(c(-c5ccc(OC)cc5)c5ccc2[n-]5)C=C4)C=C3)cc1.[Au+3].[Cl-]	6.18
4. Clc1ccc(-c2c3nc(c(-c4ccc(Cl)cc4)c4ccc([n-]4)c(-c4ccc(Cl)cc4)c4nc(c(-c5ccc(Cl)cc5)c5ccc2[n-]5)C=C4)C=C3)cc1.[Au+3].[Cl-]	6.16
5. N.N.[Cl][Pt][Cl] [Pt(NH3)2Cl2, reference compound]	4.95
6. Brc1ccc(-c2c3nc(c(-c4ccc(Br)cc4)c4ccc([n-]4)c(-c4ccc(Br)cc4)c4nc(c(-c5ccc(Br)cc5)c5ccc2[n-]5)C=C4)C=C3)cc1.[Au+3].[Cl-]	6.05
7. COc1cc(-c2c3nc(c(-c4cc(OC)c(OC)c(OC)c4)c4ccc([n-]4)c(-c4cc(OC)c(OC)c(OC)c4)c4nc(c(-c5cc(OC)c(OC)c(OC)c5)c5ccc2[n-]5)C=C4)C=C3)cc(OC)c1OC.[Au+3].[Cl-]	6.17

====

system: Human Nasopharyngeal Carcinoma (SUNE1); test: MTT cytotoxicity, SUNE1; format: cell-based; conditions: MTT, growth inhibition
pIC50: −log10 of the molar value.
Documented pIC50 across a set of compounds
measured.parameter: pIC50

1) COc1cc(-c2c3nc(c(-c4cc(OC)c(OC)c(OC)c4)c4ccc([n-]4)c(-c4cc(OC)c(OC)c(OC)c4)c4nc(c(-c5cc(OC)c(OC)c(OC)c5)c5ccc2[n-]5)C=C4)C=C3)cc(OC)c1OC.[Au+3].[Cl-] [Complex 1f]	6.17
2) COc1ccc(-c2c3nc(c(-c4ccc(OC)cc4)c4ccc([n-]4)c(-c4ccc(OC)cc4)c4nc(c(-c5ccc(OC)cc5)c5ccc2[n-]5)C=C4)C=C3)cc1.[Au+3].[Cl-] [Complex 1c]	6.17
3) Fc1c(F)c(F)c(-c2c3nc(c(-c4c(F)c(F)c(F)c(F)c4F)c4ccc([n-]4)c(-c4c(F)c(F)c(F)c(F)c4F)c4nc(c(-c5c(F)c(F)c(F)c(F)c5F)c5ccc2[n-]5)C=C4)C=C3)c(F)c1F.[Au+3].[Cl-] [Complex 1g]	5.68
4) Brc1ccc(-c2c3nc(c(-c4ccc(Br)cc4)c4ccc([n-]4)c(-c4ccc(Br)cc4)c4nc(c(-c5ccc(Br)cc5)c5ccc2[n-]5)C=C4)C=C3)cc1.[Au+3].[Cl-] [Complex 1d]	6.13
5) N.N.[Cl][Pt][Cl] [Pt(NH3)2Cl2, reference compound]	4.90
6) CCCC[N+](CCCC)(CCCC)CCCC.[Au+3].[Cl-].[Cl-].[Cl-].[Cl-] [nBu4N[AuCl4], Tetrabutylammonium tetrachloroaurate, reference compound]	5.00
7) Clc1ccc(-c2c3nc(c(-c4ccc(Cl)cc4)c4ccc([n-]4)c(-c4ccc(Cl)cc4)c4nc(c(-c5ccc(Cl)cc5)c5ccc2[n-]5)C=C4)C=C3)cc1.[Au+3].[Cl-] [Complex 1e]	6.47

====

assay: Electrochemical measurements (cyclic voltammetry); assay type: physicochemical; settings: relative to Y=H (Complex 1a)
measured.parameter: ΔE2^0 (E^0Y − E^0H), couple II (V)

1. COc1ccc(-c2c3nc(c(-c4ccc(OC)cc4)c4ccc([n-]4)c(-c4ccc(OC)cc4)c4nc(c(-c5ccc(OC)cc5)c5ccc2[n-]5)C=C4)C=C3)cc1.[Au+3].[Cl-]	−0.02
2. C1=Cc2nc1c(-c1ccccc1)c1ccc([n-]1)c(-c1ccccc1)c1nc(c(-c3ccccc3)c3ccc([n-]3)c2-c2ccccc2)C=C1.[Au+3].[Cl-]	0
